System: S. aureus ATCC P8538
Assay type: cell-based, Staphylococcus aureus
Settings: ATCC P8538, 18 h
Where no end group is shown, it is not given here.
The entries below come with measured MIC S. aureus ATCC P8538 values attached.
Answer with a number only, understood to be in µM.

substance="KKKKKKKGIGFLAFGAFVKILK-NH2 [MSI-N7K]" readout_value=25

The substance listed as KKKKKFIGLFAGGIVLAFKKKK-NH2 [MSI-Seg-Scr] has a reported MIC S. aureus ATCC P8538 of 12.5

KKKKKGIGFLAFGAFVILKKKK-NH2 [MSI-Seg] has a reported MIC S. aureus ATCC P8538 of 12.5

FYI, the data here is from paper PMC10210221.
